These measurements were taken from the supplement of paper PMC5940239.

Entries and their measured IC90 follow.
tested on: Madurella mycetomatis MM55; assay: IC90; higher = less potent; details: 7 days
Please respond with the number in µM and leave the unit unwritten.

>>> value_reported("Cc1ccc(NC(=O)CC2COc3ccccc3O2)cc1Cl (stereo not given)")
91.3
>>> value_reported("Cc1ccc(-c2nc(CN(Cc3ccccn3)C(C)C)cs2)o1")
90
>>> value_reported("Cc1ccc2nc(C)c(-c3ccn(Cc4ccccc4)n3)n2c1")
90.8

// query I have this compound here, NCC(c1cccs1)S(=O)(=O)c1ccccc1 (stereo not given) , and I need its recorded IC90.
// result 91.8

// query Likewise for "COc1ccccc1CNC(=O)c1cc(C2CC2)nc2c1cnn2C(C)C" ?
// result 88.8

* * *

tested on: Madurella mycetomatis MM55; assay: percent growth relative to solvent control; higher = less inhibition, active = 20 or less; details: 100 µM; 7 days
Classes to choose from: active, inactive

>>> class_assignment("CCCNC(=O)N1CCC2(CC1)CC(=O)c1cc(C)ccc1O2")
"inactive"
>>> class_assignment("CC1=NN(c2nc3ccccc3s2)C(=O)C1Cc1cccc2ccccc12 (stereo unspecified)")
"active"
>>> class_assignment("NS(=O)(=O)c1cccc(-c2ccc3ncc(N4CCOCC4)nc3c2)c1")
"inactive"
>>> class_assignment("Cc1nnc(NC(=O)c2cn(-c3ccccc3)nc2-c2ccccc2C)o1")
"inactive"

// query So what was the verdict on CC(C)n1ncc2c(C(=O)NCC(c3cccs3)N3CCOCC3)cc(-c3ccccc3)nc21 (stereo unspecified) in this test?
// result inactive

// query Likewise for "c1ccc2c(c1)CN(CC1CC1)CC1(CCN(Cc3c[nH]c4cnccc34)CC1)O2" ?
// result active

// query Likewise for "c1ccc(C[C@@H]2CN(c3nccc(Oc4ccc(-n5ccnc5)cc4)n3)CCN2)cc1" ?
// result active

// query Likewise for "OCc1ccc(-c2cncc(Nc3cccc(Cl)c3)c2)cc1" ?
// result active

// query Likewise for COc1ccc(OC(C)C(=O)Nc2ccc(Cl)cc2C)cc1 (stereo unspecified) ?
// result active

// query Likewise for Cc1cc2ccccc2n1CC(=O)N1CC(C(=O)N2CCCCC2)Oc2ccccc21 (stereo unspecified) ?
// result inactive

// query Likewise for "CC(C)(C)n1nc(Cc2ccc(F)c(Cl)c2)c2c(N)ncnc21" ?
// result active

* * *

system: Madurella mycetomatis MM55; experiment: percent growth relative to solvent control; higher = less inhibition, active = 20 or less; conditions: 100 µM; 7 days
Classes to choose from: Y = active, N = inactive

Example cases with answers are listed next.
>>> class_assignment("COc1cc2ncnc(NC3CCN(Cc4ccccc4)CC3)c2cc1OC")
"Y"
>>> class_assignment("O=C(Nc1cccc(Cl)c1)c1cnc(N2CCN(c3ccncc3)CC2)c(Cl)c1")
"Y"

// query So what was the verdict on "C[C@H]1COc2c(N3CCN(C)CC3)c(F)cc3c(=O)c(C(=O)O)cn1c23" in this test?
// result N

// query Likewise for "COc1ccc(-c2cc(NC(=O)c3ccc(F)cc3Cl)ccc2OC)cc1" ?
// result Y

// query Likewise for "Cc1cc(C(=O)Nc2ccc(-c3ccccc3)cc2)no1" ?
// result N

// query Likewise for CC(C)C(C(=O)Nc1ccc(S(=O)(=O)N(C)C)cc1)c1ccc(Cl)cc1 (stereo unspecified) ?
// result N

// query Likewise for "CCCCN(CCCC)c1c(C#N)cc(S(=O)(=O)Nc2ccccc2)cc1C#N" ?
// result N

* * *

tested on: Madurella mycetomatis MM55; assay: percent growth relative to solvent control; higher = less inhibition, active = 20 or less; details: 100 µM; 7 days
Classes to choose from: active, inactive

Example cases with answers are listed next.
>>> class_assignment("CCCCCCCCCCCCCCCCOP(=O)([O-])OCC[N+](C)(C)C")
"active"
>>> class_assignment("COc1ccc(C2=NCCN2)cc1-c1cn(-c2cccc(C3=NCCN3)c2)nn1")
"inactive"
>>> class_assignment("Cc1ccc2c(c1C)NC(=O)C21NN=C(c2ccccc2)S1 (stereo unspecified)")
"active"
>>> class_assignment("CC(C)(C)CN1C(=O)C(c2ccccc2)(c2ccccc2)N=C1N")
"inactive"

// query So what was the verdict on COc1cccc(-c2nc3c(N4CCCC4)cccc3n2CC2CCCN2)n1 (stereo unspecified) in this test?
// result active

// query Likewise for "O=C(Nc1ccc(F)c(-c2nc3cc(-c4ccccc4)cnc3[nH]2)c1)N1CCCC1" ?
// result inactive

// query Likewise for "NS(=O)(=O)c1cncc(-c2ccc3nccc(-c4cn[nH]c4)c3n2)c1" ?
// result inactive

* * *

tested on: Madurella mycetomatis MM55; assay: percent growth relative to solvent control; higher = less inhibition, active = 20 or less; details: 100 µM; 7 days
Classes to choose from: active, inactive

>>> class_assignment("CN1CCN(c2cc(-c3ccc(F)cc3)nc(-c3ccncc3)n2)CC1")
"active"
>>> class_assignment("COc1cccc(CC(=O)N2CCC(n3c(C)nc4ccc(F)cc43)CC2)c1")
"inactive"
>>> class_assignment("COc1ccc(-c2cnc3ccc(NCc4ccc(S(N)(=O)=O)cc4)nn23)cn1")
"inactive"
>>> class_assignment("COc1ccc(Nc2ccccc2NC(=O)c2ccc(O)nc2)cc1")
"inactive"

Query compound follows.
// query So what was the verdict on "N=C(N)c1ccc(OCCCCCOc2ccc(C(=N)N)cc2)cc1" in this test?
// result inactive

* * *

system: Madurella mycetomatis MM55; assay: percent growth relative to solvent control; higher = less inhibition, active = 20 or less; settings: 100 µM; 7 days
measure-name: percent growth (%)
Please respond with the number in % and leave the unit unwritten.

Completed entries (count: 4):
>>> value_reported("O=C(c1cc2ccccc2o1)N1CCN(Cc2ccc3c(c2)OCO3)CC1")
3.51
>>> value_reported("CCOc1ccc2cc(-c3nn(CC4CCN(C)CC4)c4ncnc(N)c34)ccc2c1")
-3.52
>>> value_reported("CC(C(=O)Nc1ccc2oc(-c3ccncc3)nc2c1)c1ccccc1 (centres undefined)")
77
>>> value_reported("Cc1cc(Nc2ccc(C(F)(F)F)cc2)n2ccnc2n1")
77.4

// query I have this molecule here, COc1ccc(C2CC(c3cccs3)=NN2C(=O)c2ccco2)cc1OC (centres undefined) , and I need its recorded percent growth.
// result 100

// query Likewise for "O=C(NCCN1CCCC1)c1cc(NCCN2CCOCC2)nc2ccc(Cl)cc12" ?
// result 85.5

// query Likewise for "O=C1[C@@H](Oc2ccccc2)[C@@H](c2ccc(Cl)cc2)N1CCn1cnc2c(NCc3ccccc3)ncnc21" ?
// result 98.5

// query Likewise for "Nc1nccc2ccc(-c3ccc4nccn4c3)cc12" ?
// result -2.88

// query Likewise for "Cc1cc(OCC(=O)Nc2ccc(C(C)C)cc2)n(C)c(=O)c1C#N" ?
// result 96

// query Likewise for "Nc1ncnc2[nH]nc(Cc3cccc4ccccc34)c12" ?
// result 118

// query Likewise for "c1coc(CNc2nc(N3CCCCC3)nc3ccccc23)c1" ?
// result 1.16

// query Likewise for "COc1ccc(-c2cnc3ccc(N4CCCC4)nn23)cc1OC" ?
// result 0.205

// query Likewise for CNC(=O)C1Cc2ccccc2N1C(=O)Cc1ccc(F)cc1 (centres undefined) ?
// result 116

* * *

system: Madurella mycetomatis MM55; experiment: percent growth relative to solvent control; higher = less inhibition, active = 20 or less; conditions: 100 µM; 7 days
Classes to choose from: T (active), F (inactive)

Example cases with answers are listed next.
>>> class_assignment("CC1(C)Cc2c(c(N3CCOCC3)nc3snc(Br)c23)CO1")
"F"
>>> class_assignment("CC(C)N=c1cc2n(-c3ccc(Cl)cc3)c3ccccc3nc-2cc1Nc1ccc(Cl)cc1")
"F"
>>> class_assignment("CC1CS(=O)(=O)CCN1/N=C/c1ccc([N+](=O)[O-])o1 (centres undefined)")
"F"

Query molecule follows.
// query So what was the verdict on "C[C@H](c1ccc2c(c1)CCCC2)N(C)c1ncc2c(N)nc(N)nc2n1" in this test?
// result T

* * *

Entries and their measured percent growth follow.
tested on: Madurella mycetomatis MM55; experiment: percent growth relative to solvent control; higher = less inhibition, active = 20 or less; conditions: 100 µM; 7 days
Please respond with the number in % and leave the unit unwritten.

>>> value_reported("Cc1cc(C)cc(COc2ccc3c(C)c(CCC(=O)O)c(=O)oc3c2C)c1")
84.8
>>> value_reported("COc1ccccc1OCCCCn1c(C2CC2)nc2ccccc21")
2.84
>>> value_reported("CC[P](CC)(CC)=[Au][S][C@H]1O[C@@H](COC(C)=O)[C@H](OC(C)=O)[C@@H](OC(C)=O)[C@@H]1OC(C)=O")
3.51
>>> value_reported("COc1cc(C2=NCCN2)cc2cc(-c3ccc(C4=NCCN4)cc3)oc12")
-1.77
>>> value_reported("Cc1cc(NC(=O)c2ccc(S(=O)(=O)N(Cc3ccccc3)C(C)C)cc2)no1")
92.5

Okay, next one:
// query I have this compound here, "Nc1nc(N)c2c3c(sc2n1)CN(Cc1ccccc1)CC3" , and I need its recorded percent growth.
// result 88
